biological target: hFXR (Homo sapiens, UniProt Q96RI1); assay: In Vitro FXR Assay (TK): TK-ECRE-luc reporter in transfected CV-1 cells; conditions: 18 hrs incubation, luminescence
Sequence (Q96RI1 whole entry): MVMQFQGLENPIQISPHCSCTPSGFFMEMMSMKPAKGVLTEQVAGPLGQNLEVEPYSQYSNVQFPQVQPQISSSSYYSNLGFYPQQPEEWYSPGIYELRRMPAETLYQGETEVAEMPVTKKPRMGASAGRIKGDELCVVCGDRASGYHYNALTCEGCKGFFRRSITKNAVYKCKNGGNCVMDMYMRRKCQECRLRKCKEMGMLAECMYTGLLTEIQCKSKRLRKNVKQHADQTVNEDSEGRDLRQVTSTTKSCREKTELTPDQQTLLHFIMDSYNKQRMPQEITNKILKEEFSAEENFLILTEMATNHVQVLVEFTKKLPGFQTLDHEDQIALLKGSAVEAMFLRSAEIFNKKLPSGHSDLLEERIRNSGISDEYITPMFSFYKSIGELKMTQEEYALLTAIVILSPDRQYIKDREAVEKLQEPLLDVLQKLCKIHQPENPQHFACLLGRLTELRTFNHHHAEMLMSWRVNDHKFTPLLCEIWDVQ
Sequence (P19793 whole entry partner): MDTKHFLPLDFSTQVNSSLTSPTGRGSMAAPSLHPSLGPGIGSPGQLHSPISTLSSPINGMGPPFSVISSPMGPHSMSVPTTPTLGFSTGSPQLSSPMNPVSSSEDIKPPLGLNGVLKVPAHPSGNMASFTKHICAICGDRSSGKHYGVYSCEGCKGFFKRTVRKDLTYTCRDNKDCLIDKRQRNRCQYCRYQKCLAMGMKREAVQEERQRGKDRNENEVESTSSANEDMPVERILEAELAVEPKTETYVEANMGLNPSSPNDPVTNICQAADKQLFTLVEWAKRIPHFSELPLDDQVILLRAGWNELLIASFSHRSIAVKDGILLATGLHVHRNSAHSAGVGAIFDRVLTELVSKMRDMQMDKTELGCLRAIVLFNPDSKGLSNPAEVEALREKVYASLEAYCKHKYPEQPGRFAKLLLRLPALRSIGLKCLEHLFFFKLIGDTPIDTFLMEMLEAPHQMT
Each entry below carries its reported EC50.

// known answers, use as guide
- MOLECULE: "COc1ccc([C@H]2CC[C@H](CN(c3cccc(-c4coc(C5CC5)n4)c3)C(=O)[C@H]3CC[C@H](CO)CC3)CC2)nc1C"
  ASSAY_TARGET: "hFXR (Homo sapiens, UniProt Q96RI1)"
  PROPERTY_LABEL: "EC50"
  RESULT: "≤ 50 nM"
- MOLECULE: "COc1ccc(C23CCC(CN(c4cc(C5CCN(C(C)C)CC5)ccn4)C(=O)[C@H]4CC[C@H](OC(=O)N5CC(O)C5)CC4)(CC2)CC3)cc1C"
  ASSAY_TARGET: "hFXR (Homo sapiens, UniProt Q96RI1)"
  PROPERTY_LABEL: "EC50"
  RESULT: "50 to 1000 nM"
- MOLECULE: "COc1ccc(C23CCC(CN(c4cc(-c5coc(C(C)C)n5)ccn4)C(=O)[C@H]4CC[C@H](OC(=O)N5CC(OCCO)C5)CC4)(CC2)CC3)cc1C"
  ASSAY_TARGET: "hFXR (Homo sapiens, UniProt Q96RI1)"
  PROPERTY_LABEL: "EC50"
  RESULT: "≤ 50 nM"
- MOLECULE: "COc1ncc([C@H]2CC[C@H](CN(c3cc(-c4cnn(C(C)C)c4)ccn3)C(=O)[C@H]3CC[C@H](OC(=O)N4CC(N(C)C)C4)CC3)CC2)cc1Cl"
  ASSAY_TARGET: "hFXR (Homo sapiens, UniProt Q96RI1)"
  PROPERTY_LABEL: "EC50"
  RESULT: "≤ 50 nM"
- MOLECULE: "COc1c(C)cc(C23CCC(CN(c4cc(-c5cnn(C(C)C)c5)ccn4)C(=O)[C@H]4CC[C@H](OC(=O)N5CC(O)C5)CC4)(CC2)CC3)cc1C"
  ASSAY_TARGET: "hFXR (Homo sapiens, UniProt Q96RI1)"
  PROPERTY_LABEL: "EC50"
  RESULT: "≤ 50 nM"

Q. Requested field: EC50. Item: COc1ccc([C@H]2CC[C@H](CN(c3cc(-c4cnc(C5CC5)o4)ccn3)C(=O)[C@H]3CC[C@H](OC(=O)NCC(C)(C)O)CC3)CC2)cc1C
A. ≤ 50 nM
